Quick reference for Plant response rating, Pigweed among some compounds
# System: pigweed (Amaranthus retroflexus)
# procedure_summary: Test A preemergence, pigweed
# Format: in vivo
# condition_set: 31 g ai/ha, 0 to 100 scale
quantity: Plant response rating, Pigweed

INSERT INTO assay_data (item_smiles, quantity, val) VALUES
  ('Cc1nn(C)c(=O)c(-c2c3ccccc3cc3ccccc23)c1O', 'Plant response rating, Pigweed', 100),
  ('Cn1nc(Cl)c(O)c(-c2c3ccccc3c(Cl)c3ccccc23)c1=O', 'Plant response rating, Pigweed', 100),
  ('Cn1nc(Cl)c(O)c(-c2c3ccccc3c(Br)c3ccccc23)c1=O', 'Plant response rating, Pigweed', 100),
  ('Cc1c2ccccc2c(-c2c(O)c(Cl)nn(C)c2=O)c2ccccc12', 'Plant response rating, Pigweed', 0),
  ('C1COCCN1.Cn1nc(Cl)c(O)c(-c2c3ccccc3cc3ccccc23)c1=O', 'Plant response rating, Pigweed', 60),
  ('CC(=O)Oc1c(Cl)nn(C)c(=O)c1-c1c2ccccc2cc2ccccc12', 'Plant response rating, Pigweed', 80),
  ('Cn1nc(Cl)c(O)c(-c2c3ccccc3cc3ccccc23)c1=O', 'Plant response rating, Pigweed', 100);
